pKi listing for selected molecules.
Target: Sodium-dependent serotonin transporter (Rattus norvegicus, UniProt P31652)
Sequence (P31652 whole entry): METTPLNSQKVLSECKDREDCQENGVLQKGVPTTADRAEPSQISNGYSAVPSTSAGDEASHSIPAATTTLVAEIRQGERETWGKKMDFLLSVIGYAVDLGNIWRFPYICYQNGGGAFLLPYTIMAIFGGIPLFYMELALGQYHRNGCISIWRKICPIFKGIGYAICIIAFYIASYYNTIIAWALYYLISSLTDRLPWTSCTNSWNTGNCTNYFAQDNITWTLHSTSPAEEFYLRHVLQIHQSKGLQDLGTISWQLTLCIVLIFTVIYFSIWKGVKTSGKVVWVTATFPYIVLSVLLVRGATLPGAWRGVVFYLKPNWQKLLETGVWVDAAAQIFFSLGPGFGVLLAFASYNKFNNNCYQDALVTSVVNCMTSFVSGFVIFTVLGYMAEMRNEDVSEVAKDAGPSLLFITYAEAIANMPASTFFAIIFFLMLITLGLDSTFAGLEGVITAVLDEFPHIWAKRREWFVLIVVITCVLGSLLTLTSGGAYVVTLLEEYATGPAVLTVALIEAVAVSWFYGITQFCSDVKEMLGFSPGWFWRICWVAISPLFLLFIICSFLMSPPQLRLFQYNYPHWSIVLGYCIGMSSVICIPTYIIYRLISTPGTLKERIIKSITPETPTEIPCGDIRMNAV
pKi: −log10 of the molar value.
VALUE TYPE: pKi

>>> quantitative_readout("OC(Cc1ccc(F)cc1)CN1CCCN(CCSC(c2ccc(F)cc2)c2ccc(F)cc2)CC1 (configuration not stated)")
6.30
>>> quantitative_readout("[O-][S+](CCN1CCCN(CC(O)Cc2ccc(F)cc2)CC1)C(c1ccc(F)cc1)c1ccc(F)cc1 (configuration not stated)")
5.67
>>> quantitative_readout("CC(O)CN1CCC(CCSC(c2ccc(F)cc2)c2ccc(F)cc2)CC1 (configuration not stated)")
5.72
>>> quantitative_readout("OC(Cc1ccccc1)CN1CCC(CCSC(c2ccc(F)cc2)c2ccc(F)cc2)CC1 (configuration not stated)")
6.70
>>> quantitative_readout("CC(O)CN1CCC(CC[S+]([O-])C(c2ccc(F)cc2)c2ccc(F)cc2)CC1 (configuration not stated)")
4.79
>>> quantitative_readout("C[C@H](O)CN1CCC(CCSC(c2ccc(F)cc2)c2ccc(F)cc2)CC1")
5.92
